normalized growth for assorted compounds
Experiment: chemical genetic growth profiling, strain panel (AID 1159580);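 note: tested at 20 µM; growth read once vehicle control cultures reached saturation at 30 °C; 1 = growth at the plate median or of vehicle wells; lower values mean less growth of the strain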
Conditions: S. cerevisiae deletion strains, growth OD, locus YGR092W, strain DBF2, active compounds read low
In all, about 5,500 compounds went through this assay and about 2,000 (36%) were called active. Another 18% or so got no clear call; they are omitted. This is one part of the list.
Property label: normalized growth

OC(=Cc1nc2ccccc2nc1C=C(O)c1ccc(Cl)cc1)c1ccc(Cl)cc1: 0.793
O=[N+]([O-])c1ccc(Sc2ssc(=S)c2-c2ccccc2)nc1: 0.617
O=[N+]([O-])c1ccc2oc(C(O)c3cccc(Cl)c3)cc2c1 (stereo unspecified): 0.907
CC(=O)ON=C1c2cc([N+](=O)[O-])ccc2-c2ccc([N+](=O)[O-])cc21: 0.426
Cc1cccc(NC(=S)NNC(=O)CSCc2cccc3ccccc23)c1: 0.865
O=C(Nc1ccc(OC(F)(F)F)cc1)N1CCN(c2nc(-c3ccccc3)ns2)CC1: 0.898
O=C(Nc1ccc(Cl)cc1)OCCSc1nc2ccccc2s1: 0.928
O=[N+]([O-])c1ccc2oc(C(O)c3ccc(-c4ccccc4)cc3)cc2c1 (stereo unspecified): 0.802
S=c1[nH]nc(Nc2ccc(I)cc2)s1: 0.326
O=C(Nc1ccc(OC(F)(F)F)cc1)OC1CN(C(c2ccccc2)c2ccccc2)C1: 0.961
O=C(/C=C/Sc1nc2ccccc2s1)c1ccc(Cl)cc1: 0.925
